Source: PubChem BioAssay (Tox21)

# protocol.text: qHTS assay to identify small molecule antagonists of the estrogen receptor alpha (ER-alpha) signaling pathway - cell viability counter screen (AID 743074);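 also: HEK293 cells carrying ER-alpha-UAS-bla reporter stimulated with 17beta-estradiol; nearly all actives have a fitted effect of over 45% in size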
# measurement.parameters: ERalpha-bla HEK293 viability, CellTiter-Glo luminescence, 18 h; series mostly up to 69.4 µM
Results filed as inconclusive are left out. Active and inactive are the calls of the source. Calls follow the shape of the full dose curve. Positions of bridges follow the written chain, without caps; N, C: chain ends. Non-standard residues stand in square brackets, D forms with d. Residues, ends and D or L forms follow the SMILES beside them. hArg = N=C(N)NCCCC[C@H](N)C(=O)O; Mpa = O=C(O)CCS
outcome.measure: activity, negative = cytotoxicity

Before answering, review these 10 worked examples.
O=C=NCC1CCCC(CN=C=O)C1 (configuration not stated): inactive
Cc1ccccc1C(N)=O: inactive
CC(C)COC(=O)c1ccccc1: inactive
Cn1nnc2c(C(N)=O)ncn2c1=O: inactive
CCCCOC(=O)C(C)O (configuration not stated): inactive
CCC(=O)c1c(O)cc(O)cc1O: inactive
CC(=O)O[C@@H]1CC2CCC1(C)C2(C)C (some centres not stated): inactive
CN(C)CCOC(=O)C(c1ccccc1)C1(O)CCCC1 (configuration not stated): inactive
CC1(C)Oc2ccc(C#N)cc2[C@@H](N2CCCC2=O)[C@@H]1O: inactive
C/C(CC(C)C)=N\O: inactive

Ask: Identify activity, negative = cytotoxicity associated with the compound NC(=O)[C@@H]1CSSCCC(=O)N[C@@H](CCCCN=C(N)N)C(=O)NCC(=O)N[C@@H](CC(=O)O)C(=O)N[C@@H](Cc2c[nH]c3ccccc23)C(=O)N2CCC[C@H]2C(=O)N1 ([Mpa][hArg]GDWPC-NH2; disulfide 1-7)
Result: inactive

Ask: Consider the compound `CC1=C(C(=O)O)N2C(=O)[C@@H](NC(=O)[C@H](N)c3ccccc3)[C@H]2SC1` . State its measured activity, negative = cytotoxicity.
Result: inactive

* * *

# protocol.text: qHTS assay to identify small molecule agonists of the sonic hedgehog signaling (Shh) pathway - cell viability counter screen (AID 1259366); also: nearly all actives have a fitted effect of over 50% in size
# measurement.parameters: NIH/3T3 Gli1-Luc viability, CellTiter-Fluor, 24 h; series mostly up to 92.4 µM
Records with an inconclusive call do not appear. Active and inactive are the calls of the source. Calls follow the shape of the dose curve; as a rule, active = well fitted cell-killing curve with a large enough effect in the repeat runs; inconclusive = weak or mixed curves, or effect the other way; inactive = flat fitted curve, though single readings scatter.
outcome.measure: viability change, negative = cytotoxic

Sample answers from the record:
CCN1CCCC1CN (centres undefined): inactive
COC(=O)c1cccc(Cl)c1: inactive
Cc1cc(C)c(C(=O)O)c(C)c1: inactive
O=C(O)CCCCCC(=O)O: inactive
CCCCOC(=O)C(C)O (centres undefined): inactive
CC(C)=CCC[C@@](C)(O)[C@H]1CC=C(C)CC1: inactive

Ask: Recall and state the measured viability change, negative = cytotoxic for `CCNC(=O)NCc1cccc(Cl)c1` .
Result: inactive

Ask: Return viability change, negative = cytotoxic for the following compound: `CC(=O)O[C@H]1C[C@@H]2CC[C@@]1(C)C2(C)C`
Result: inactive

Ask: Determine its reported viability change, negative = cytotoxic: `CCCCOCCOC(=O)COc1ccc(Cl)cc1Cl`
Result: inactive

Ask: Answer with reported viability change, negative = cytotoxic of `CC(C)C[C@@H]1[C@H](c2ccccc2)OC(=O)N1CCCN1CCCCCC1`
Result: inactive

Ask: Give viability change, negative = cytotoxic for `CNCCS(=O)(=O)O`
Result: inactive

Ask: Fill in reported viability change, negative = cytotoxic for this entry: `CC(=O)CCC1=C(C)CCCC1(C)C`
Result: inactive

* * *

# protocol.text: qHTS assay for small molecule activators of the heat shock response signaling pathway - cell viability counter screen (AID 743209); also: nearly all actives have a fitted effect of over 50% in size
# measurement.parameters: HSE-bla HeLa viability, CellTiter-Glo luminescence, 5 h; series mostly up to 62.6 µM
Inconclusive results are not listed. Activity calls are given as the source filed them. Calls follow the shape of the dose curve; as a rule, active = well fitted cell-killing curve with a large enough effect in the repeat runs; inconclusive = weak or mixed curves, or effect the other way; inactive = no such curve, though single readings can be large or run the other way.
outcome.measure: activity change, negative = cytotoxicity

CC(C)c1ccc(C=O)cc1: inactive
CCCCCCCCCCOC(C)=O: inactive
CCCCCCCCCCCCCCCCCCOCCO: inactive
CNCCS(=O)(=O)O: inactive

Ask: Identify the reported activity change, negative = cytotoxicity for the following entry. `C=C(C)[C@@H]1CC=C(C)C(=O)C1`
Result: inactive

Ask: # return recorded activity change, negative = cytotoxicity for input `CCCCCCCCCCCCCBr`
Result: inactive

Ask: Tell us which activity change, negative = cytotoxicity value is on record for `CCCCOCCOC(=O)COc1ccc(Cl)cc1Cl`
Result: inactive

Ask: Input `C=Cc1ccc(C(C)(C)C)cc1` , output reported activity change, negative = cytotoxicity.
Result: inactive

Ask: // fetch activity change, negative = cytotoxicity given entry CCOC(=O)CC1(C)OCC(C)O1 (stereo unspecified)
Result: inactive

Ask: // Input: `Cc1ccnc(N)c1` . Output its activity change, negative = cytotoxicity only.
Result: inactive

Ask: Give activity change, negative = cytotoxicity for the following molecule: `CCCCCc1cccc(=O)o1`
Result: inactive

* * *

# protocol.text: qHTS assay to identify small molecule antagonists of the estrogen receptor alpha (ER-alpha) signaling pathway using the BG1 cell line in the presence of 0.1 nM 17-beta-estradiol - cell viability counter screen (AID 1259241); also: nearly all actives have a fitted effect of over 40% in size
# measurement.parameters: VM7Luc4E2 (BG1) viability, CellTiter-Fluor protease, 22 h, 0.1 nM estradiol agonist added; series mostly up to 92.4 µM
Records with an inconclusive call do not appear. The source made the active and inactive calls. The call rests on the fitted dose curve; in most records, active means well fitted cell-killing curve with a large enough effect in the repeat runs; inconclusive means weak or mixed curves, or effect the other way; inactive means flat fitted curve, though single readings scatter.
outcome.measure: activity change, negative = cytotoxicity

Illustrative cases are given below, each with its answer.
COc1nc(N)nc2nc[nH]c12: inactive
O=C1CCCCO1: inactive
CC(=O)OCC(=O)Nc1cc(C#N)cc(NC(=O)COC(C)=O)c1Cl: inactive
COS(=O)(=O)O: inactive
CCOC(=O)CC1(C)OCC(C)O1 (configuration not stated): inactive
CC(=O)CCc1ccc(OC(C)=O)cc1: inactive

Ask: Report measured activity change, negative = cytotoxicity; entry is `O=C1NC(c2ccccc2)(c2ccccc2)C(=O)N1COP(=O)(O)O`
Result: inactive

Ask: State its activity change, negative = cytotoxicity for this compound: `COC(=O)/C=C\C(=O)O`
Result: inactive

Ask: Give activity change, negative = cytotoxicity for `Nc1nc(-c2ccccc2)c(Br)c(=O)[nH]1`
Result: inactive

Ask: Report activity change, negative = cytotoxicity for `c1ccc2cnccc2c1`
Result: inactive

Ask: Please supply the value of reported activity change, negative = cytotoxicity for the item `CC(C)Nc1ccccc1`
Result: inactive

* * *

# measurement.target: Estrogen receptor (Homo sapiens) (UniProt P03372)
# Sequence (P03372 whole entry, looked up): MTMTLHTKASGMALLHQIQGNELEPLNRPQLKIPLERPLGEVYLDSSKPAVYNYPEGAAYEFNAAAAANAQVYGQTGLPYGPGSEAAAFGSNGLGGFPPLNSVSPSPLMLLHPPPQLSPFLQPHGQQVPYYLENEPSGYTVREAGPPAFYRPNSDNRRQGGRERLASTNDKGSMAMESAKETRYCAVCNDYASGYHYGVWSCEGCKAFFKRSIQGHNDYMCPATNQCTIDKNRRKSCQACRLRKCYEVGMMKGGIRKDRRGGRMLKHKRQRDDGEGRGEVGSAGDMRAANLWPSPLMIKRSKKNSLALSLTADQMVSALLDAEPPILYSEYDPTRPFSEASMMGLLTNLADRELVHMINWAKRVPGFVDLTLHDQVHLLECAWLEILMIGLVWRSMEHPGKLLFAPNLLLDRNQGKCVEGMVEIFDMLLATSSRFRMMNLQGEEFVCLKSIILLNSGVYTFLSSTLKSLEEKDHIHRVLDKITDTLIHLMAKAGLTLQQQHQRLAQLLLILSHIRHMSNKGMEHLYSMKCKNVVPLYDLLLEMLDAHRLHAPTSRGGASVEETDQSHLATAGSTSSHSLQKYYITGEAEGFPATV
# protocol.text: qHTS assay to identify small molecule agonists of the estrogen receptor alpha (ER-alpha) signaling pathway in the presence of an antagonist (AID 1259383); also: top concentration of the series differs between compounds; nearly all actives have a fitted effect of over 15% in size
# measurement.parameters: VM7Luc4E2 cells, ERE-luciferase, +ICI-182,780, 22 h; series mostly up to 92.4 µM
# Excerpt: National Center for Advancing Translational Sciences [NCATS] NIH Chemical Genomics Center [NCGC] U.S. Environmental Protection Agency [EPA] National Institutes of Environmental Health Sciences [NIEHS] National Toxicology Program [NTP] Assay overview: Estrogen receptor (ER), a member of nuclear hormone receptor plays an important role in development, metabolic homeostasis and reproduction. Two subtypes of ER, ER-alpha and ER-beta, have similar expression patterns with some uniqueness in both types. […]
The source made the active and inactive calls. Calls come from the whole dose curve.
outcome.measure: activation

See these solved cases before continuing.
CCO[Si](CC)(OCC)OCC: inactive
CC(C)Nc1ccccc1: inactive
[O-][n+]1cccc(/C(Cl)=N/OC[C@@H](O)CN2CCCCC2)c1: inactive
O=C(CN1CCNCC1)NC1CCCCC1: inactive
CCCCCCCCCOC(=O)c1ccccc1C(=O)OCCCCCCCCC: inactive

Ask: Check the records and state activation for `C#CCN[C@@H]1CCc2ccccc21`
Result: inactive

Ask: Output measured activation for this item: `NCCOCCN`
Result: inactive

Ask: Report activation, nothing else, for this molecule: `CCNC(=O)NCc1cccc(Cl)c1`
Result: inactive

Ask: Answer with reported activation of `O=C1CCC(=O)N1Cl`
Result: inactive

Ask: Fill in reported activation for this entry: `O=C(CCCl)NCCc1ccccc1`
Result: inactive

Ask: Using known records, supply activation for `CC1=C(C(=O)O)N2C(=O)[C@@H](NC(=O)[C@H](N)C3=CCC=CC3)[C@H]2SC1`
Result: inactive

Ask: Give the measured activation for CCC(C(=O)OCCN1CCOC(c2ccccc2)C1C)c1ccccc1 (centres undefined)
Result: inactive

Ask: Return value of activation for input `CN(C)CCN(C)CCO` , no commentary.
Result: inactive

Ask: Report activation, nothing else, for this molecule: `CC(=O)CCC1=C(C)CCCC1(C)C`
Result: inactive

* * *

# measurement.target: Bile acid receptor (Homo sapiens)
# protocol.text: qHTS assay to identify small molecule antagonists of the farnesoid-X-receptor (FXR) signaling pathway (AID 743217)
# measurement.parameters: HEK293T FXR-UAS-bla, beta-lactamase ratio, CDCA-stimulated, 16 h; series mostly up to 62.6 µM
Inconclusive results are not listed. Activity calls are given as the source filed them. Calls follow the shape of the dose curve; as a rule, active = well fitted inhibition curve with a large enough effect in the signal ratio in the repeat runs (not every such curve was filed as active); inconclusive = weak or mixed curves, or effect the other way; inactive = no such curve, though single readings can be large or run the other way; the % refers to the signal ratio.
outcome.measure: activity change, negative = inhibition

O=C(O)[C@H](O)c1ccccc1: inactive
CN(C)CCN(C)CCO: inactive
N#Cc1cscn1: inactive
CC1(C)Oc2ccc(C#N)cc2[C@@H](N2CCCC2=O)[C@@H]1O: inactive
Nc1nnnn1-c1ccccc1: inactive

Okay, next one:
Ask: Find the measured activity change, negative = inhibition of `N#Cc1ccccc1O` and report it.
Result: inactive
